Target: LHRH (Rattus norvegicus, UniProt P30969)
Construct: endogenous in cells; host or cells: rat pituitary cells (own knowledge of the cited Haviv 1989 method)
Assay: in vitro test for LHRH antagonist potency (pA2)
Format: cell-based
Conditions: negative logarithm of the antagonist concentration required to shift the response curve produced by the agonist leuprolide to two-fold higher concentration
Non-standard residues stand in square brackets, D forms with d. Residues, ends and D or L forms follow the SMILES beside them. Groups on a side chain read outwards from the residue. *: point of attachment. Shikimoyl = O=C(C1=C[C@@H](O)[C@@H](O)[C@H](O)C1)*; dPhe(4-Cl) = N[C@H](Cc1ccc(Cl)cc1)C(=O)O; d2Nal = N[C@H](Cc1ccc2ccccc2c1)C(=O)O; Lys(iPr) = CC(C)NCCCC[C@H](N)C(=O)O; NMeY = CN[C@@H](Cc1ccc(O)cc1)C(=O)O; d3Pal = N[C@H](Cc1cccnc1)C(=O)O; Nicotinoyl = O=C(c1cccnc1)*
Answer each item with its documented Kb.
Field: value (include unit after the number)

Q: Look up Kb for this molecule: CC(C)C[C@H](NC(=O)[C@@H](CCCCNC(=O)CNC(=O)c1cccnc1)NC(=O)[C@H](Cc1ccc(O)cc1)N(C)C(=O)[C@H](CO)NC(=O)[C@@H](Cc1cccnc1)NC(=O)[C@@H](Cc1ccc(Cl)cc1)NC(=O)[C@@H](Cc1ccc2ccccc2c1)NC(=O)C1=C[C@@H](O)[C@@H](O)[C@H](O)C1)C(=O)N[C@@H](CCCCNC(C)C)C(=O)N1CCC[C@H]1C(=O)N[C@H](C)C(N)=O [Example 29] (Shikimoyl-[d2Nal][dPhe(4-Cl)][d3Pal]S[NMeY][dK]([Gly-Nicotinoyl])L[Lys(iPr)]P[dA]-NH2)
Result: 0.0257 nM

Q: Please report the recorded Kb for CC(C)C[C@H](NC(=O)[C@@H](CCCCNC(=O)c1cccnc1)NC(=O)[C@H](Cc1ccc(O)cc1)N(C)C(=O)[C@H](CO)NC(=O)[C@@H](Cc1cccnc1)NC(=O)[C@@H](Cc1ccc(Cl)cc1)NC(=O)[C@@H](Cc1ccc2ccccc2c1)NC(=O)C1=C[C@@H](O)[C@@H](O)[C@H](O)C1)C(=O)N[C@@H](CCCCNC(C)C)C(=O)N1CCC[C@H]1C(=O)N[C@H](C)C(N)=O [Example 71] (Shikimoyl-[d2Nal][dPhe(4-Cl)][d3Pal]S[NMeY][dK](Nicotinoyl)L[Lys(iPr)]P[dA]-NH2) .
Result: 0.00708 nM

###

Molecular target: LHRH (Rattus norvegicus)
Construct: endogenous in cells; host or cells: rat pituitary cells (own knowledge of the cited Haviv 1989 method)
Sequence (P30969 1-327): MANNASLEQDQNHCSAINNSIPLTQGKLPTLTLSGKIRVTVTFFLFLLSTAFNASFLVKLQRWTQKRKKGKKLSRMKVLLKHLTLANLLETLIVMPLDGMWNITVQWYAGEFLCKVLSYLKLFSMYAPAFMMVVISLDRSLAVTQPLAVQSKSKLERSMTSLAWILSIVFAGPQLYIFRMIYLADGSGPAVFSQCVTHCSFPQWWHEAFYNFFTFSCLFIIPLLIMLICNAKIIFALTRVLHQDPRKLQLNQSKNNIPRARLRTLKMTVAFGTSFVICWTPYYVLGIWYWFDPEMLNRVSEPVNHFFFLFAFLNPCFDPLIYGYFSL
Experiment: in vitro test for LHRH antagonist potency (pA2)
Assay type: cell-based
Details: negative logarithm of the antagonist concentration required to shift the response curve produced by the agonist leuprolide to two-fold higher concentration
Non-standard residues stand in square brackets, D forms with d. Residues, ends and D or L forms follow the SMILES beside them. Groups on a side chain read outwards from the residue. *: point of attachment. Shikimoyl = O=C(C1=C[C@@H](O)[C@@H](O)[C@H](O)C1)*; dPhe(4-Cl) = N[C@H](Cc1ccc(Cl)cc1)C(=O)O; d2Nal = N[C@H](Cc1ccc2ccccc2c1)C(=O)O; NMeY = CN[C@@H](Cc1ccc(O)cc1)C(=O)O; d3Pal = N[C@H](Cc1cccnc1)C(=O)O; Nicotinoyl = O=C(c1cccnc1)*
test.readout: Kb (pM)
Field: numeric (pM). Do not append units.

Q: Request the reported Kb associated with CC(C)C[C@H](NC(=O)[C@@H](CCCCNC(=O)CNC(=O)C1=C[C@@H](O)[C@@H](O)[C@H](O)C1)NC(=O)[C@H](Cc1ccc(O)cc1)N(C)C(=O)[C@H](CO)NC(=O)[C@@H](Cc1cccnc1)NC(=O)[C@@H](Cc1ccc(Cl)cc1)NC(=O)[C@@H](Cc1ccc2ccccc2c1)NC(=O)CNC(=O)C1=C[C@@H](O)[C@@H](O)[C@H](O)C1)C(=O)N[C@@H](CCCNC(=N)N)C(=O)N1CCC[C@H]1C(=O)N[C@H](C)C(N)=O [Example 15d] (Shikimoyl-G[d2Nal][dPhe(4-Cl)][d3Pal]S[NMeY][dK]([Gly-Shikimoyl])LRP[dA]-NH2)
Result: 17.8

Q: Could you share which Kb value was measured for CC(C)C[C@H](NC(=O)[C@@H](CCCCNC(=O)CNC(=O)c1cccnc1)NC(=O)[C@H](Cc1ccc(O)cc1)N(C)C(=O)[C@H](CO)NC(=O)[C@@H](Cc1cccnc1)NC(=O)[C@@H](Cc1ccc(Cl)cc1)NC(=O)[C@@H](Cc1ccc2ccccc2c1)NC(=O)CNC(=O)C1=C[C@@H](O)[C@@H](O)[C@H](O)C1)C(=O)N[C@@H](CCCNC(=N)N)C(=O)N1CCC[C@H]1C(=O)N[C@H](C)C(N)=O [Example 15b] (Shikimoyl-G[d2Nal][dPhe(4-Cl)][d3Pal]S[NMeY][dK]([Gly-Nicotinoyl])LRP[dA]-NH2) ?
Result: 20.9
